biological target: Dopamine receptor; assay: In vitro inhibition of [3H]spiperone binding to Dopamine receptor D2 in Macaca nemestrina striatal membranes; parameters: species or system Striatum, Membrane
MEASURED_ATTRIBUTE: Ki (nM)

# COMPOUND, MEASURED_ATTRIBUTE, VALUE
records = [
    ("COc1c(Cl)cc(Cl)c(O)c1C(=O)NC[C@@H]1CCCN1CCC(C)F (some centres not stated)", "Ki", 2610),
    ("COc1c(Cl)cc(Cl)c(O)c1C(=O)NC[C@@H]1CCCN1CCCCF", "Ki", 88.5),
]

I = COc1c(Cl)cc(Cl)c(O)c1C(=O)NC[C@H]1CCCN1CCC(C)F (some centres not stated)
II = COc1c(Cl)cc(Cl)c(O)c1C(=O)NC[C@@H]1CCCN1CCF
III = CCCCN1CCC[C@H]1CNC(=O)c1c(O)c(Cl)cc(Cl)c1OC
## Input Rank descending by Ki. // format: requested-order list of labels
## Output I, II, III

1 = COc1c(Cl)cc(Cl)c(O)c1C(=O)NC[C@@H]1CCCN1CCCF
2 = CCCN1CCC[C@H]1CNC(=O)c1c(O)c(Cl)cc(Cl)c1OC
## Input When the recorded Ki values are compared, which is smaller: that of 1 or that of 2 ? State your choice using its label.
## Output 2

* * *

assay: Partition coefficient (logP); assay type: physicochemical; conditions: octanol/water
MEASURED_ATTRIBUTE: logP

# COMPOUND, logP
rows = [
    ("CCCCN1CCC[C@H]1CNC(=O)c1c(O)c(Cl)cc(Cl)c1OC", 2.28),
]

I = COc1c(Cl)cc(Cl)c(O)c1C(=O)NC[C@@H]1CCCN1CCCF
II = COc1c(Cl)cc(Cl)c(O)c1C(=O)NC[C@@H]1CCCN1CCF
III = CCCN1CCC[C@H]1CNC(=O)c1c(O)c(Cl)cc(Cl)c1OC
## Input Please list these in order of increasing logP. Thank you! // format: requested-order list of labels
## Output II, I, III

* * *

experiment: Dissociation constant of the compound; value ranges from 0.81-1.2 nM; type: physicochemical
MEASURED_ATTRIBUTE: Kd (nM)
I only need the number, in nM, no unit after it.

## Input What value of Kd has been recorded for this entry: CCN1CCC[C@H]1CNC(=O)c1c(O)c(Cl)cc(Cl)c1OC [RACLOPRIDE]
## Output 0.81

* * *

experiment: Partition coefficient (logP); format: physicochemical; settings: octanol/water
MEASURED_ATTRIBUTE: logP

# MOLECULE, VALUE
data = [
    ("COc1c(Cl)cc(Cl)c(O)c1C(=O)NC[C@H]1CCCN1CCC(C)F (stereo partly drawn)", 1.5),
    ("COc1c(Cl)cc(Cl)c(O)c1C(=O)NC[C@@H]1CCCN1CCC(C)F (stereo partly drawn)", 1.5),
    ("COc1c(Cl)cc(Cl)c(O)c1C(=O)NC[C@@H]1CCCN1CCCCF", 1.6),
]
